# Tested on: SK-MEL-2 melanoma
# methodNotes: NCI-60 one-dose screen, 48 h (100 = growth as untreated, 0 = no growth, -100 = all killed)
# conditions: 10 µM unless noted
About 83,000 compounds went through this panel and 20% of them were active in at least one assay; those are over-represented in the sample as a whole.
readoutKind: growth (%)
Numbers only here, please. The scale is %.

Query: For the compound CN1CCN(C(=O)c2ccc(NC(=O)c3cc4c(nn3)NCCN4Cc3cc(Cl)ccc3Cl)cc2)CC1 , give its measured growth value.
Result: 78.8

Query: // fetch growth given entry O=C(CSc1nc2ccc([N+](=O)[O-])cc2[nH]1)Nc1ccc([N+](=O)[O-])cc1
Result: -5.26

Query: Give me measured growth, please, for this compound: O=C1NC(=C(Cl)Cl)/C(=N\S(=O)(=O)NCc2ccccc2)N1
Result: 103

Query: Give recorded growth. c1ccc(Cn2cc3c(c2)-c2oncc2CC3)cc1
Result: 53.9

Query: Respond only with growth recorded for CC(=O)Oc1ccc(C)cc1C
Result: 99.7

Query: Could you please provide reported growth for O=S(=O)(NCCNc1nccc(-c2c(-c3ccc(F)c(O)c3)nc3sccn23)n1)c1ccc(O)cc1 ? Thanks!
Result: 19.8

Query: Look up and report measured growth for this entry: C=C1CC[C@@H]2[C@](C)(COC(C)=O)[C@H](OC(C)=O)CC[C@@]2(C)[C@@H]1CC(Nc1ccc(S(=O)(=O)Nc2ncccn2)cc1)C1=CCOC1=O (some centres undefined)
Result: 41.9

Query: Give the reported growth for this compound. O=S(=O)(Nc1ccc(Cl)c(C(F)(F)F)c1)c1ccc(-c2cnc(C3CC3)o2)cc1
Result: 5.31

Query: Specify reported growth for the compound shown: COc1ccc(/C=C/C(=O)c2cc3c(N)c(C(=O)Nc4cccc5ccccc45)sc3nc2C)cc1
Result: 70.9

###

# Test system: HT29 colon
# methodNotes: NCI-60 one-dose screen, 48 h (100 = growth as untreated, 0 = no growth, -100 = all killed)
# conditions: 10 µM unless noted
# Description: Growth inhibition of the HT29 human tumor cell line is measured as a screen for anti-cancer activity. Cells are grown in 96 well plates and exposed to the test compound for 48 hours. Compounds are tested at a single concentration, which is 10^-5 M for most compounds. The reported endpoint is percent growth (GI% or GIPRCNT), where numbers from 0 - 100% represent growth inhibition, and numbers from -100% - 0 represent cell death. For example, a value of 40 represents 60% growth inhibition. […]
The panel holds about 83,000 compounds, 20% with a hit somewhere; the sample as a whole holds those more often. The source made the active and inactive calls. The calls were made as follows: active = growth percent below 10; inactive = the rest.
readoutKind: growth

Query: Given COc1ccc(/C=C/C(=O)c2cc3c(N)c(C(=O)Nc4cccc5ccccc45)sc3nc2C)cc1 , respond with its growth.
Result: 70.2% (inactive)

Query: Quickly give me recorded growth for COc1cc(OC)c(NC(=O)c2cc3ccccc3cc2O)cc1Cl
Result: 101% (inactive)

Query: Give the reported value of growth for this record: C#COc1cccc(Nc2c(C#N)cnc3ncc(NC(=O)CCl)cc23)c1
Result: 3.12% [6.25 µM] (active)

Query: Hello, please tell me recorded growth for this one: COc1ccc(-c2cc(-c3cccnc3)nc3sc4c(=O)[nH]c(-c5ccc(Cl)cc5)nc4c23)cc1OC
Result: 96.3% (inactive)

Query: Answer with the recorded growth of COc1ccc(/C=N/NC(=O)c2ccc(-n3cc(-c4ccccc4)nn3)cc2)cc1OC only.
Result: 100% (inactive)

Query: Please list growth recorded for the compound Cc1c2cnccc2c(C)c2c1c1cc(C#N)ccc1n2C
Result: -18.9% (active)

Query: Let me know recorded growth for Cc1ccc(C2=Nc3c(N)ncnc3NC(c3cccc(Nc4ccnc5cc(C(F)(F)F)ccc45)c3)C2)cc1 (centres undefined) , thanks.
Result: 5.98% (active)

Query: Provide growth value for the following compound: CCCCNC(=O)Oc1ccc(/C(=C(/C)Cc2ccc(OC)cc2)c2ccc(OCCN(CC)CC)cc2)cc1
Result: 6.03% (active)

Query: Entry COCCNC(=O)Nc1ccc2nc(-c3cccs3)c(-c3cccs3)nc2c1 needs its growth filled in; supply it.
Result: 87.8% (inactive)

Query: For the compound Cn1cc(-c2csc(-c3c[nH]c4ccccc34)n2)c2cnccc21 , give its reported growth.
Result: -1.85% (active)

Query: Return growth for the following compound: CCC(=C(c1ccc(OCCN2CCCCC2)cc1)c1ccc(OCCN2CCCCC2)cc1)c1ccc(Cl)cc1
Result: -74.6% (active)

Query: Look up growth of CC/C=C\C[C@H](O)C/C=C1/C(=O)C=C[C@@H]1C/C=C\CCCC(=O)N(C)C and report it.
Result: -71.5% (active)

Query: Answer with the recorded growth of COc1ccc(-c2nn(-c3cccc(Cl)c3)cc2-c2cc(-c3ccc(Br)cc3)nc(N)n2)cc1 only.
Result: 86% (inactive)

Query: // fetch growth given entry O=C(/C=C/c1cccs1)Nc1ncc(Cc2ccccc2F)s1
Result: 8.61% (active)

Query: Give the measured growth for COc1ccc(C/C(C)=C(/c2ccc(OCCN(C)C)cc2)c2ccc(OC(=O)NCc3ccccc3)cc2)cc1
Result: -13.7% (active)

Query: Give growth for N#Cc1c(-c2ccc(Cl)cc2)c(C#N)c2c(C#N)c(N)nn2c1N
Result: 83.3% (inactive)

Query: Specify growth for O=S(=O)(NCCCNc1nccc(-c2c(-c3ccc(F)c(O)c3)nc3sccn23)n1)c1ccccc1 and stop.
Result: 51% (inactive)

Query: Given the compound COc1cc(C2c3cc(OC(C)=O)c(OC)cc3CC3C(=O)OCC32)ccc1OC(C)=O (centres undefined) , write its reported growth.
Result: 97.6% (inactive)

Query: Check the records and state growth for CSc1nc(N)c(NS(=O)(=O)c2ccc(C(C)=O)cc2)c(=O)[nH]1
Result: 103% (inactive)

Query: Read the entry O=C1c2c(c3c4ccccc4[nH]c3c3ccc4ccccc4c23)C(=O)N1CCN1CCNCC1 and write its reported growth.
Result: -14.6% (active)

Query: Using the record for CC(C)=CCC[C@](C)(O)[C@H]1CC[C@]2(C)[C@@H]1CC[C@@H]1[C@@]3(C)C/C(=C/c4ccco4)C(=O)C(C)(C)[C@@H]3CC[C@]12C , state its measured growth.
Result: 111% (inactive)

Query: Give the reported growth for this compound. CCc1ncnc2c1ccn2C(C)c1ccc(OC)c(F)c1 (centres undefined)
Result: 14% (inactive)

Query: Given CCC(C)(C)C(=O)O[C@H]1C[C@@H](C)C=C2C=C[C@H](C)[C@H](CC[C@@H]3CC(SCCN)CC(=O)O3)[C@H]21 (some centres undefined) , respond with its growth.
Result: 75% (inactive)

Query: Write down growth measured for item O=S(=O)(Nc1cc(F)cc(Cl)c1)c1ccc(-c2cnc(C3CC3)o2)cc1
Result: 4.89% (active)

Query: // Input: CCOC(=O)C(=O)C(C(=O)OCC)c1ccccc1 (centres undefined) . Output its growth only.
Result: 116% (inactive)

Query: Tell me growth reported for Cc1ccc(NC(=O)c2sc3nc(C)c(Br)c(C)c3c2N)cc1
Result: 87.4% (inactive)

Query: Give me measured growth, please, for this compound: C=CCc1c(O)c(C(=O)/C=C/c2ccccc2)c(OC)c2ccoc12
Result: 27.9% (inactive)

Query: Give a short answer stating reported growth for O=C(CSc1nnc(-c2cnccn2)n1-c1ccccc1)c1ccc(Cl)cc1 .
Result: 94.7% (inactive)

Query: Look up growth of N#Cc1ccc(O)c(C2=NCC(c3cccc(Oc4ccccc4)c3)O2)c1 (centres undefined) and report it.
Result: 13.8% (inactive)

###

# System: SK-MEL-2 melanoma
# methodNotes: NCI-60 one-dose screen, 48 h
# conditions: 10 µM unless noted
The panel holds about 83,000 compounds, 20% with a hit somewhere; the sample as a whole holds those more often. Activity calls are given as the source filed them. How the source made its calls: active means growth percent below 10; inactive means the rest.
Thanks in advance; please answer with one of these: yes = active, no = inactive

Query: Which outcome was assigned to C=CCOC(=O)Nc1cccn([C@H](Cc2ccccc2)C(=O)NCCC(C)C)c1=O in this test?
Result: no

Query: Entry Cc1ccccc1/C=C/C(=O)c1cccc(OCCCOc2cccc(C(=O)/C=C/c3ccccc3C)c2)c1 : call = ?
Result: no

Query: Hey, what did the test say about O=C(Nc1cccc(Cl)c1)Nc1cccc(Cn2c(=O)[nH]c3ccc(Oc4ncccn4)cc3c2=O)c1 ?
Result: no

Query: Hey, what did the test say about Cc1cccc(/C=C2\CN(C(=O)OC(C)(C)C)C/C(=C\c3cccc(C)c3)C2=O)c1 ?
Result: no

Query: Fill in: this test's call for Cn1ccnc1C(=O)/C=C/c1ccc(C(=O)Nc2ccc(Cl)cc2)cc1 is ___
Result: no

Query: Assay result, entry O=C(NNC(=O)c1ccc(NC(=O)c2ccccn2)cc1)Nc1ccc([N+](=O)[O-])cc1 — outcome?
Result: no

Query: In this assay, the call recorded for COC1=CC(c2ccc[nH]2)=N/C1=C\c1[nH]c(C)c(CC(=O)OCc2ccccc2)c1CCC(=O)OCc1ccccc1 was what?
Result: yes

Query: Given CCCOC(=O)Nc1nc2ccc(SCC(C)C)cc2s1 , state the outcome it received in this test.
Result: no

Query: Hi, sorry to bother you, what did the test record for COc1ccc(/C=N/NC(=O)c2ccc(-n3cc(-c4ccccc4)nn3)cc2)cc1OC ?
Result: no
